# Tested on: Morganella morganii ATCC 8076h
Below is a list of entries, each paired with its recorded MIC value.
PARAMETER MEASURED: MIC (µg/mL)

CCO/N=C(\C(=O)N[C@@H]1C(=O)N2C(C(=O)[O-])=C(CSc3cc(N)[n+](CC)c(N)n3)CS[C@H]12)c1nsc(N)n1 [Compound I-11]    0.016
C#CCO/N=C(\C(=O)N[C@@H]1C(=O)N2C(C(=O)[O-])=C(CSc3cc(N)[n+](CC)c(N)n3)CS[C@H]12)c1csc(N)n1 [Compound I-15]    0.016

* * *

# System: Proteus mirabilis ATCC 25933
# TEST SUMMARY: Antibacterial activity MIC, two-fold agar dilution
# Assay type: cell-based
# PROTOCOL CONDITIONS: ATCC25933; Proteus mirabilis ATCC 25933; Muller-Hinton agar, 37° C., 20 hours; read-out: Antibacterial Activity MIC
# Yes = MIC below 0.06 µg/mL (exclusive); No = MIC at/above 0.06 µg/mL

C[n+]1c(N)cc(SCC2=C(C(=O)[O-])N3C(=O)[C@@H](NC(=O)/C(=N\OCC(=O)O)c4csc(N)n4)[C@H]3SC2)nc1N [Compound I-17]    Yes
CC(C)(O/N=C(\C(=O)NC1C(=O)N2C(C(=O)[O-])=C(CSc3nc(N)nc(N)[n+]3-c3ccccc3)CS[C@H]12)c1csc(N)n1)C(=O)O (stereo partly drawn) [Compound I-25]    No
C#CCO/N=C(\C(=O)N[C@@H]1C(=O)N2C(C(=O)[O-])=C(CSc3cc(N)[n+](C)c(N)n3)CS[C@H]12)c1csc(N)n1 [Compound I-14]    No
CC[n+]1c(N)cc(SCC2=C(C(=O)[O-])N3C(=O)[C@@H](NC(=O)/C(=N\OCC(=O)O)c4csc(N)n4)[C@H]3SC2)nc1N [Compound I-18]    No
CO/N=C(\C(=O)N[C@@H]1C(=O)N2C(C(=O)[O-])=C(CSc3cc(N)nc(N)[n+]3C)CS[C@H]12)c1csc(N)n1 [Compound I-7]    Yes

* * *

# System: Shigella sonnei ATCC 11060
Below is a list of entries, each paired with its recorded MIC value.
PARAMETER MEASURED: MIC

CC[n+]1c(N)cc(SCC2=C(C(=O)[O-])N3C(=O)[C@@H](NC(=O)/C(=N\OCC(=O)O)c4csc(N)n4)[C@H]3SC2)nc1N    0.063 µg/mL
CC[n+]1c(N)cc(SCC2=C(C(=O)[O-])N3C(=O)[C@@H](NC(=O)/C(=N\OC)c4csc(N)n4)[C@H]3SC2)nc1N    0.031 µg/mL
C#CCO/N=C(\C(=O)N[C@@H]1C(=O)N2C(C(=O)[O-])=C(CSc3cc(N)[n+](CC)c(N)n3)CS[C@H]12)c1csc(N)n1    0.5 µg/mL
CC[n+]1c(N)nc(N)nc1SCC1=C(C(=O)[O-])N2C(=O)C(NC(=O)/C(=N\OC(C)(C)C(=O)O)c3csc(N)n3)[C@H]2SC1 (stereo partly drawn)    0.063 µg/mL
CC(C)(O/N=C(\C(=O)NC1C(=O)N2C(C(=O)[O-])=C(CSc3nc(N)nc(N)[n+]3-c3ccccc3)CS[C@H]12)c1csc(N)n1)C(=O)O (stereo partly drawn)    0.25 µg/mL
CC[n+]1c(N)cc(SCC2=C(C(=O)[O-])N3C(=O)[C@@H](NC(=O)/C(=N\OC(C)C(=O)O)c4csc(N)n4)[C@H]3SC2)nc1N (stereo partly drawn)    0.5 µg/mL
CCO/N=C(\C(=O)N[C@@H]1C(=O)N2C(C(=O)[O-])=C(CSc3cc(N)nc(N)[n+]3CC)CS[C@H]12)c1nsc(N)n1    0.25 µg/mL
CC[n+]1c(SCC2=C(C(=O)[O-])N3C(=O)[C@@H](NC(=O)/C(=N\OC)c4csc(N)n4)[C@H]3SC2)cc(N)nc1N    0.5 µg/mL
CC[n+]1c(SCC2=C(C(=O)[O-])N3C(=O)[C@@H](NC(=O)/C(=N\OC(C)(C)C(=O)O)c4csc(N)n4)[C@H]3SC2)cc(N)nc1N    0.25 µg/mL
C[n+]1c(SCC2=C(C(=O)[O-])N3C(=O)[C@@H](NC(=O)/C(=N\OC(C)(C)C(=O)O)c4csc(N)n4)[C@H]3SC2)cc(N)nc1N    0.25 µg/mL
CC[n+]1c(N)cc(SCC2=C(C(=O)[O-])N3C(=O)[C@@H](NC(=O)/C(=N\OC(C)(C)C(=O)O)c4csc(N)n4)[C@H]3SC2)nc1N    0.25 µg/mL
CO/N=C(\C(=O)N[C@@H]1C(=O)N2C(C(=O)[O-])=C(CSc3cc(N)nc(N)[n+]3C)CS[C@H]12)c1csc(N)n1    0.5 µg/mL
